These data points were gathered from patent US8268881B2.

Measured pKi, listed per entry.
target: human muscarinic M3 receptor (Homo sapiens, UniProt P20309); construct: expressed in transfected cells; assay: hM3 β-Lac potency assay (cell based β-lactamase); details: CHO cells expressing human M3 receptor, NFAT β-lactamase reporter; […]; IC50 converted to Ki by Cheng-Prusoff; read-out: Cell based β-lactamase M3 Ki
Sequence (P20309 whole entry): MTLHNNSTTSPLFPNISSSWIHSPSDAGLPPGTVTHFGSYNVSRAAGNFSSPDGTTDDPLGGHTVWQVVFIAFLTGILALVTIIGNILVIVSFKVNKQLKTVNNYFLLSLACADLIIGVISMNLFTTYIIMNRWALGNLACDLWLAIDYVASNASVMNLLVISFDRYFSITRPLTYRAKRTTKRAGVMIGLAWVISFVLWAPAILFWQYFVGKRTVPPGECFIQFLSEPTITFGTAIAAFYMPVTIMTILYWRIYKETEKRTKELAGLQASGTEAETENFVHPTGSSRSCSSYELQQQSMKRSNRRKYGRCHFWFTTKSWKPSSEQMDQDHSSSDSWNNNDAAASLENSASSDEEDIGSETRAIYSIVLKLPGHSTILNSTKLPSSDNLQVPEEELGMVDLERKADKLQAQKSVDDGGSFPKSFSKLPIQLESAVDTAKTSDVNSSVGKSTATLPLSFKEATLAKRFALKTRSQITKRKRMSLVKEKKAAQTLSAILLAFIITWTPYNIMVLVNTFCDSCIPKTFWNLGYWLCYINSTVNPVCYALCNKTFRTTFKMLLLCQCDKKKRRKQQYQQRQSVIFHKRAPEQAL
Note: pKi values are expressed as the negative base-10 logarithm of concentration in M.

Prompt: I am curious: what pKi value has been reported for CC(C)(CCC(C#N)(c1ccccc1)c1ccccc1)N1CC(OCc2ccc(O)cc2)C1 ?
Response: 9.72

Prompt: Reported pKi, compound CC(C)(CCC(C#N)(c1ccccc1)c1ccccc1)N1CC[C@H](Oc2ccccc2)C1 : ____
Response: 8.08

Prompt: Item CC(C)(CCC(C#N)(c1ccccc1)c1ccccc1)N1CCC(OCc2cccc(O)c2)CC1 has what recorded pKi?
Response: 7.14

Continuing:
Prompt: Item under review: COc1cccc(OC2CN(C(C)(C)CCC(C#N)(c3ccccc3)c3ccccc3)C2)c1 . Reported pKi?
Response: 7.18

###

Molecular target: human muscarinic M3 receptor (Homo sapiens)
Construct: expressed in transfected cells
Test: hM3 β-Lac potency assay (cell based β-lactamase)
Settings: CHO cells expressing human M3 receptor, NFAT β-lactamase reporter; inhibition of 80 nM carbamyl choline signal, 4 h; IC50 converted to Ki by Cheng-Prusoff; read-out: Cell based β-lactamase M3 Ki
Description: M3 potency was determined in CHO-K1 cells transfected with the NFAT-Betalactamase gene. CHO (Chinese Hamster Ovary) cells recombinantly expressing the human muscarinic M3 receptor were transfected with the NFAT_β-Lac_Zeo plasmid. The cells were re-suspended at 2×10^5 cells/ml in growth medium (composition as described above). […]
Output: class label from Ki. Mapping: bucket 1 (below 1 nM), bucket 2 (1 nM to below 30 nM), bucket 3 (30 nM or more)

Previously resolved entries follow.
Prompt: # classify by Ki band: CC(C)(CCC(C(N)=O)(c1ccccc1)c1ccccc1)N1CC(Oc2cc(O)cc(F)c2)C1 [Example 121]
Response: bucket 1

Prompt: Kindly state the category for this molecule: COc1ccc(O[C@@H]2CCN(C(C)(C)CCC(C(N)=O)(c3ccccc3)c3ccccc3)C2)cc1Cl [Example 28]
Response: bucket 3

Prompt: Please report the category associated with Cc1c(O)cccc1O[C@H]1CCN(C(C)(C)CCC(C(N)=O)(c2ccccc2)c2ccccc2)C1 [Example 30] , nothing else.
Response: bucket 1

Prompt: Assign a category based on measured Ki for CC(C)(CCC(C(N)=O)(c1ccccc1)c1ccccc1)N1CC[C@@H](Oc2cccc(Cl)c2O)C1 [Example 43] and give only the class name.
Response: bucket 2

Prompt: For CC(C)(CCC(C(N)=O)(c1ccccc1)c1ccccc1)N1CC(Oc2ccc(F)cc2O)C1 [Example 127] , which Ki bin applies?
Response: bucket 3

New cases:
Prompt: Could you place CC(C)(CCC(C(N)=O)(c1ccccc1)c1ccccc1)N1CC(Oc2ccc(Cl)c(O)c2)C1 [Example 114] in its proper category? Many thanks.
Response: bucket 2

Prompt: GET /class?item= CC(C)(CCC(C(N)=O)(c1ccccc1)c1ccccc1)N1CC(OCc2ccccc2)C1 [Example 102]
Response: bucket 1

Prompt: Looking at Cc1cc(O)c(C)c(O[C@H]2CCN(C(C)(C)CCC(C(N)=O)(c3ccccc3)c3ccccc3)C2)c1 [Example 44] , which class would you pick?
Response: bucket 3

Prompt: For the record COc1cc(O[C@@H]2CCN(C(C)(C)CCC(C(N)=O)(c3ccccc3)c3ccccc3)C2)ccc1Cl [Example 81] , report the class its Ki corresponds to.
Response: bucket 3

Prompt: Please indicate the class for CC(C)(CCC(C(N)=O)(c1ccccc1)c1ccccc1)N1CC(OCc2ccc(Cl)cc2O)C1 [Example 147] based on its Ki.
Response: bucket 3
